- METHOD DESCRIPTION: NCI Yeast Anticancer Drug Screen. Data for the rad14 strain (AID 159)
- SETUP CONDITIONS: S. cerevisiae rad14 strain growth inhibition; at 100.0 µM
The panel holds about 79,000 compounds, 15% with a hit somewhere; the sample as a whole holds those more often. Active and inactive are the calls of the source. Rule as the data show it: active = growth inhibition above about 70%; inactive = the rest.
Hello, when you answer, please use one of the following outcomes: t = active, f = inactive

[
  {
    "MOLECULE": "CCCS(=O)(=O)Nc1ccc(Nc2c3ccccc3nc3ccccc23)c(OC)c1",
    "CLASS NAME": "f"
  },
  {
    "MOLECULE": "COc1cc2c(c(OC)c1OC)-c1c(cc3c(c1OC)OCO3)CC(C)C(C)(O)C2OC(=O)c1ccccc1 (stereo not given)",
    "CLASS NAME": "f"
  },
  {
    "MOLECULE": "CC1OCC2OC(C)OC(C3C4=C(CC(C)(C)CC4=O)OC4=C3C(=O)CC(C)(C)C4)C2O1 (stereo not given)",
    "CLASS NAME": "f"
  }
]

Data request: For this molecule, state the assay outcome: `CSC(=S)Nc1cccc(C)n1`
Data returned: f

Data request: Call for entry `O=[N+]([O-])c1ccc([N+]2=NC(c3ccccc3)=NN(c3ccccc3)C2)cc1` :
Data returned: t

----------
- METHOD DESCRIPTION: NCI Yeast Anticancer Drug Screen. Data for the bub3 strain (AID 167)
- SETUP CONDITIONS: S. cerevisiae bub3 mutant strain, at 50.0 µM
Compounds without any hit were thinned out: in the full panel of roughly 79,000, 15% have a hit. Calls of active or inactive are those of the source. No stated cut-off is given here; in the data, active means growth inhibition above about 70%; inactive means the rest.
Bench note: report the call from active, inactive

Answered examples (5):
[
  {
    "COMPOUND": "Cc1ccc(S/N=C\\c2ccccc2O)cc1",
    "CLASS NAME": "active"
  },
  {
    "COMPOUND": "CC/C(=C(\\c1ccccc1)c1ccc(OCCN(C)C)cc1)c1ccccc1",
    "CLASS NAME": "active"
  },
  {
    "COMPOUND": "CCCCCCCCCCC1CCC(=O)O1 (stereo not given)",
    "CLASS NAME": "active"
  },
  {
    "COMPOUND": "O=C1c2ccccc2C(=O)c2c(NC3CCCCC3)ccc(Nc3ccc(S(=O)(=O)O)cc3)c21",
    "CLASS NAME": "active"
  },
  {
    "COMPOUND": "OC1CCCc2c1cc1ccc3cccc4ccc2c1c34 (stereo not given)",
    "CLASS NAME": "active"
  }
]

Data request: Give the logged outcome of this assay for the following compound: CCCCCCCCCCCCCCCCCCN(C)CC(COP(=O)([O-])OCC[N+](C)(C)C)OC (stereo not given)
Data returned: active

Data request: Dear all, I need the recorded test outcome for CC(Br)C(=O)c1ccc2cc(Br)c3ccccc3c2c1 (stereo not given) , thank you.
Data returned: inactive

Data request: Given `S=c1[nH]nc(Nc2ccc(Cl)cc2)s1` , state the outcome it received in this test.
Data returned: active

Data request: I would be grateful if you could indicate the recorded call for `CSC(=S)Nc1cc(C)ccn1` .
Data returned: active

Data request: Hi, sorry to bother you, what did the test record for `CCCC/C=C/C(CC)(C(=O)OCC)C(=O)OCC` ?
Data returned: inactive

Data request: Give the logged outcome of this assay for the following compound: `CN(C)c1ccc(Sc2ccc3nc(N)nc(N)c3c2)cc1`
Data returned: inactive

Data request: Name the outcome recorded for `Cc1nc(-[n+]2nc(-c3ccncc3)nn2-c2ccccc2)sc1C` in the assay.
Data returned: inactive

Data request: Which outcome did this test record for the compound `O=Nc1c(NO)ccc2nn(-c3ccccc3)nc12` ?
Data returned: active

Data request: Just curious, what result did `O=C(O)c1cccc(-c2c3ccc(=O)cc-3oc3cc(O)ccc23)c1` get here?
Data returned: inactive

These entries and their values trace back to PubChem BioAssay (NCI).
